Target: CYP2C19 (Homo sapiens, UniProt P33261)
Sequence (P33261 whole entry): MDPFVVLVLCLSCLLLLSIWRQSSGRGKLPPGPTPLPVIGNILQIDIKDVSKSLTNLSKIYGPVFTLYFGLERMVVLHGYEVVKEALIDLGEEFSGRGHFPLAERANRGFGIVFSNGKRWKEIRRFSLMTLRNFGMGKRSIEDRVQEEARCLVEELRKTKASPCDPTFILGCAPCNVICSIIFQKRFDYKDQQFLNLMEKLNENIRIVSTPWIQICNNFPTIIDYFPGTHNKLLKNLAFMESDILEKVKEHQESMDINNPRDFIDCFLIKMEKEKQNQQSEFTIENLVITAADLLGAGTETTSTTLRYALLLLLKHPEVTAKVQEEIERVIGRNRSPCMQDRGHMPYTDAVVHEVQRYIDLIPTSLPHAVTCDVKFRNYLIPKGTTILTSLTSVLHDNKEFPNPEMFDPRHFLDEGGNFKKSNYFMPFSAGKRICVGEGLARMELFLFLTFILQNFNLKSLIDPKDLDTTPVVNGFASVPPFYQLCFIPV
Assay: CYP inhibition in human liver microsomes
Conditions: human, human liver microsomes, probe mephenytoin
property name: activity at 20 min, 3 µM (%)
The answer is to be given in %; state only the numeric part.

Item: CCc1cc(Cl)c(OC)c(N2CCN(CC(O)CCNC(=O)c3cc4ccccc4[nH]3)CC2)c1 (centres unmarked) [R-VK4-116] Test system: CYP2C19 (Homo sapiens, UniProt P33261) Read-out: activity at 20 min, 3 µM Value: ?
95.9

Another compound to check: Nc1ccc(S(=O)(=O)Nc2ccnn2-c2ccccc2)cc1 [Sulfaphenazole]
102

----------
Assay: Metabolic stability in liver microsomes
Conditions: rat, liver microsomes, pH 7.4
property name: remaining at 1 h, 1 μM (%)
The answer is to be given in %; state only the numeric part.

// returns reported remaining at 1 h, 1 μM for input CCc1cc(Cl)c(OC)c(N2CCN(CC(O)CCNC(=O)c3cc4ccccc4[nH]3)CC2)c1 (stereo not shown)
56.8

----------
Target: CYP2D6 (Homo sapiens)
Sequence (P10635 whole entry): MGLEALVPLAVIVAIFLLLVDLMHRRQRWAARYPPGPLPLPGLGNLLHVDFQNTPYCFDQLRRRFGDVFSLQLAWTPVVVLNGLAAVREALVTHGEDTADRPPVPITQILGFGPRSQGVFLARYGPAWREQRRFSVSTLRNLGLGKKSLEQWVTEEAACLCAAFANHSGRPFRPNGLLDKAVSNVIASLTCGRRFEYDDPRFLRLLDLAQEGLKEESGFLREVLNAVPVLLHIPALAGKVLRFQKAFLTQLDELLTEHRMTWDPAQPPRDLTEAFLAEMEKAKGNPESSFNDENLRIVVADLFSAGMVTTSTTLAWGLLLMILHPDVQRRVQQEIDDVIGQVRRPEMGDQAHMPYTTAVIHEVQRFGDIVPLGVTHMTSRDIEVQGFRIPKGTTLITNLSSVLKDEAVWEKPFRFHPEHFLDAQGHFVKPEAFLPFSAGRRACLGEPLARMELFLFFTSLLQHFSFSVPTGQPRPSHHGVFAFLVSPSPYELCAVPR
Experiment: CYP inhibition in human liver microsomes
Conditions: human, microsomes
property name: activity at 20 min, 30 µM (%)
The answer is to be given in %; state only the numeric part.

// returns reported activity at 20 min, 30 µM for input C=C(C)[C@@H]1CCC2=CC(=O)C[C@@H](C)[C@]2(C)C1
91.9

----------
Biological target: CYP1A2 (Homo sapiens, UniProt P05177)
Test: CYP inhibition in human liver microsomes
Conditions: human, human liver microsomes, probe phenacetin
property name: activity at 20 min, 10 µM (%)
The answer is to be given in %; state only the numeric part.

// returns reported activity at 20 min, 10 µM for input CC(C)(O)c1ccccc1CC[C@@H](SCC1(CC(=O)O)CC1)c1cccc(/C=C/c2ccc3ccc(Cl)cc3n2)c1 [Montelukast]
91

Another compound to check: CCc1cc(Cl)c(OC)c(N2CCN(CC(O)CCNC(=O)c3cc4ccccc4[nH]3)CC2)c1 (centres unmarked) [R-VK4-116]
96.3

----------
Experiment: Metabolic stability in liver microsomes
Conditions: human, liver microsomes, pH 7.4
property name: remaining at 1 h, 1 μM
The answer should read as a number with its unit following.

// returns reported remaining at 1 h, 1 μM for input CCc1cc(Cl)c(OC)c(N2CCN(CC(O)CCNC(=O)c3cc4ccccc4[nH]3)CC2)c1 (stereo not shown)
25.9%

----------
Assay: Metabolic stability in liver microsomes
Settings: monkey, liver microsomes, pH 7.4
property name: remaining at 0 h, 1 μM (%)
The answer is to be given in %; state only the numeric part.

// returns reported remaining at 0 h, 1 μM for input CCc1cc(Cl)c(OC)c(N2CCN(CC(O)CCNC(=O)c3cc4ccccc4[nH]3)CC2)c1 (stereo not shown)
100

----------
Assay: Metabolic stability in liver microsomes
Details: human, liver microsomes, pH 7.4
property name: remaining at 0.5 h, 10 μM
The answer should read as a number with its unit following.

// returns reported remaining at 0.5 h, 10 μM for input CCc1cc(Cl)c(OC)c(N2CCN(CC(O)CCNC(=O)c3cc4ccccc4[nH]3)CC2)c1 (stereo not shown)
69.7%

----------
Target: CYP1A2 (Homo sapiens)
Sequence (P05177 1-516): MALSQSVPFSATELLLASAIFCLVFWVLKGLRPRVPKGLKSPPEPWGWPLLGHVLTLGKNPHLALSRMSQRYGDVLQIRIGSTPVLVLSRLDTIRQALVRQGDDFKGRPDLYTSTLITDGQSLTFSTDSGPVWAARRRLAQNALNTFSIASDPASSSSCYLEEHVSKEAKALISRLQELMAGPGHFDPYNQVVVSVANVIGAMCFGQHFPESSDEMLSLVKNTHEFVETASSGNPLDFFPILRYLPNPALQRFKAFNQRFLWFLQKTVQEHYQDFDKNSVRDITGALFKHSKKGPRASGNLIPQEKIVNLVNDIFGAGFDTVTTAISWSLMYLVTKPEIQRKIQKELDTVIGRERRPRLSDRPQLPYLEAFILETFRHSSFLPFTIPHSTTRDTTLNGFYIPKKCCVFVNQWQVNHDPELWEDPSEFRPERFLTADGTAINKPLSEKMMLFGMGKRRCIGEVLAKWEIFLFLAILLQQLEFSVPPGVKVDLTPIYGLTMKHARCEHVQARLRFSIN
Assay: CYP inhibition in human liver microsomes
Details: human, human liver microsomes, probe phenacetin
property name: activity at 20 min, 1 µM (%)
The answer is to be given in %; state only the numeric part.

// returns reported activity at 20 min, 1 µM for input CCc1cc(Cl)c(OC)c(N2CCN(CC(O)CCNC(=O)c3cc4ccccc4[nH]3)CC2)c1 (stereo not shown) [R-VK4-116]
89.9

----------
Assay: Metabolic stability in liver microsomes
Conditions: dog, microsomes, pH 7.4
property name: remaining at 2 h, 10 μM (%)
The answer is to be given in %; state only the numeric part.

// returns reported remaining at 2 h, 10 μM for input Cc1ncc2n1-c1ccc(Cl)cc1C(c1ccccc1F)=NC2 [Midazolam, reference compound]
95.8

----------
Biological target: P-gp (Homo sapiens, UniProt P08183)
Construct: expressed in transfected cells; host or cells: MDCK-II cells
Sequence (P08183 whole entry): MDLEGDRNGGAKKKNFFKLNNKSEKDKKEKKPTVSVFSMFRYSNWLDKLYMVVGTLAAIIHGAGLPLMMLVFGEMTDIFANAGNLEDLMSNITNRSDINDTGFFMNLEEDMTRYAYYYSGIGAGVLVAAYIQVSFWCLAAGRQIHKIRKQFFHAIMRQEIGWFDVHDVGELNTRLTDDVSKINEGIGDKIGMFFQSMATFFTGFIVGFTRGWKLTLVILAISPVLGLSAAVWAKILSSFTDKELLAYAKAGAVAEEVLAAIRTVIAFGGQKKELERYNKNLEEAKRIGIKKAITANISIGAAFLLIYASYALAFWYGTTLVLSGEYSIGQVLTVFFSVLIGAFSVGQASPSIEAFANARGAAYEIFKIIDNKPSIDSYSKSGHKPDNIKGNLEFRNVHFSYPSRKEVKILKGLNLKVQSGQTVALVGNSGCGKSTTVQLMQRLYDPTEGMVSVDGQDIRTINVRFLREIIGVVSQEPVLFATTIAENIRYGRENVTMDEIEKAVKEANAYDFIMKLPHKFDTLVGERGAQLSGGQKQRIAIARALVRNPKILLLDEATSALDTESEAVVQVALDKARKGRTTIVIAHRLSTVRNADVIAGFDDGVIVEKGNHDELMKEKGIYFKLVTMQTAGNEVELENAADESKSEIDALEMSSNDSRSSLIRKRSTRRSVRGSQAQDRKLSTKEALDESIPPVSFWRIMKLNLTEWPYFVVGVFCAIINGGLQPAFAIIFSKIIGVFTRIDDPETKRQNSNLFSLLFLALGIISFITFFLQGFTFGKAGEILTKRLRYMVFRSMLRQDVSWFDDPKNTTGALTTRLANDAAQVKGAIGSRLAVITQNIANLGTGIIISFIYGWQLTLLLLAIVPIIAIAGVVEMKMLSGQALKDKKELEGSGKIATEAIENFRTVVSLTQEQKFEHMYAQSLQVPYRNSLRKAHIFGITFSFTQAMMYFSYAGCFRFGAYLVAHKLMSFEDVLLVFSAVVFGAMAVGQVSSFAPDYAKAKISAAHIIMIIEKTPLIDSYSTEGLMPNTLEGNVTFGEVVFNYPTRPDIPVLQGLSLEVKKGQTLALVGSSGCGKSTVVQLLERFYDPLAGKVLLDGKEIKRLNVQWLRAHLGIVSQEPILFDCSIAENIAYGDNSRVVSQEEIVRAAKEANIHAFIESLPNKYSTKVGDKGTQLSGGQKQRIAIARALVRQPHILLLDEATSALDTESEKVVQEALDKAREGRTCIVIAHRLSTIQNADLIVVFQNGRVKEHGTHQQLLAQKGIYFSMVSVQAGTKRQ
Assay: Transporter mediated assay (substrate/inhibitor), MDCK-II cells
Assay type: in vitro ADME
Settings: human, MDCK-MDR1; P-gp, substrate test, 1 µM
property name: Papp A→B at 1 µM

// returns reported Papp A→B at 1 µM for input CCc1cc(Cl)c(OC)c(N2CCN(CC(O)CCNC(=O)c3cc4ccccc4[nH]3)CC2)c1 (stereo not shown)
< 0.2 ×10⁻⁶ cm/s

----------
Test: Metabolic stability in liver microsomes
Conditions: rat, liver microsomes, pH 7.4
property name: remaining at 1.5 h, 1 μM (%)
The answer is to be given in %; state only the numeric part.

// returns reported remaining at 1.5 h, 1 μM for input CCc1cc(Cl)c(OC)c(N2CCN(CC(O)CCNC(=O)c3cc4ccccc4[nH]3)CC2)c1 (stereo not shown)
45.5

----------
Tested on: CYP3A4 mRNA
Assay: CYP induction, mRNA, primary cultured human hepatocytes
Assay type: in vitro ADME
Settings: human, primary cultured human hepatocytes, Lot 336, 0.01 μM; read-out: CYP3A4 mRNA Fold Induction (fold of vehicle control)
property name: fold induction at 48 h, 0.01 µM
The answer should be a number; do not append a unit.

// returns reported fold induction at 48 h, 0.01 µM for input CCc1cc(Cl)c(OC)c(N2CCN(CC(O)CCNC(=O)c3cc4ccccc4[nH]3)CC2)c1 (stereo not shown)
1.1

----------
Tested on: CYP3A4 mRNA
Assay: CYP induction, mRNA, primary cultured human hepatocytes
Type: in vitro ADME
Settings: human, primary cultured human hepatocytes, Lot 399, 10 μM; read-out: CYP3A4 mRNA Fold Induction (fold of vehicle control)
property name: fold induction at 48 h, 10 µM

// returns reported fold induction at 48 h, 10 µM for input CCc1cc(Cl)c(OC)c(N2CCN(CC(O)CCNC(=O)c3cc4ccccc4[nH]3)CC2)c1 (stereo not shown) [R-VK4-116]
2.3

----------
Target: UniProt P20813
Sequence (P20813 whole entry): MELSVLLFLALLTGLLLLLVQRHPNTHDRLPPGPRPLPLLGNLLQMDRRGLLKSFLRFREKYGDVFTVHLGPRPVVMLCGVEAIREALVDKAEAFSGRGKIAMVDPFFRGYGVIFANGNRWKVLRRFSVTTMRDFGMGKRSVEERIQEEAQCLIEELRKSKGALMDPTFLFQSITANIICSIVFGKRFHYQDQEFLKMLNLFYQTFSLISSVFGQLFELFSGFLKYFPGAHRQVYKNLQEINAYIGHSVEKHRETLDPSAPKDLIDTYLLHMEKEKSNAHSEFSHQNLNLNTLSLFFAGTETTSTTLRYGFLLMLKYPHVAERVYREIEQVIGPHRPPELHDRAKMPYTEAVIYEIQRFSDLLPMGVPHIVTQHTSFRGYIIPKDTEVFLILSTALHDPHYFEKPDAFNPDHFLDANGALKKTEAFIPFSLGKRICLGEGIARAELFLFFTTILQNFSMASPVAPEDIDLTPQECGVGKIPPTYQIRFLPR
Assay: CYP inhibition in human liver microsomes
Conditions: human, human liver microsomes, probe bupropion
property name: activity at 20 min, 2 µM (%)
The answer is to be given in %; state only the numeric part.

Item: C=C[C@H]1C[N@@]2CC[C@H]1C[C@@H]2[C@@H](O)c1ccnc2ccc(OC)cc12 [quinidine, reference compound] Test system: UniProt P20813 Read-out: activity at 20 min, 2 µM Value: ?
91.6

----------
Experiment: Metabolic stability in liver microsomes
Conditions: rat, heat-inactivated liver microsomes, pH 7.4
property name: remaining at 0 h, 1 μM (%)
The answer is to be given in %; state only the numeric part.

// returns reported remaining at 0 h, 1 μM for input CCc1cc(Cl)c(OC)c(N2CCN(CC(O)CCNC(=O)c3cc4ccccc4[nH]3)CC2)c1 (stereo not shown) [R-VK4-116]
100

----------
Molecular target: CYP3A4 (Homo sapiens, UniProt P08684)
Sequence (P08684 2-503): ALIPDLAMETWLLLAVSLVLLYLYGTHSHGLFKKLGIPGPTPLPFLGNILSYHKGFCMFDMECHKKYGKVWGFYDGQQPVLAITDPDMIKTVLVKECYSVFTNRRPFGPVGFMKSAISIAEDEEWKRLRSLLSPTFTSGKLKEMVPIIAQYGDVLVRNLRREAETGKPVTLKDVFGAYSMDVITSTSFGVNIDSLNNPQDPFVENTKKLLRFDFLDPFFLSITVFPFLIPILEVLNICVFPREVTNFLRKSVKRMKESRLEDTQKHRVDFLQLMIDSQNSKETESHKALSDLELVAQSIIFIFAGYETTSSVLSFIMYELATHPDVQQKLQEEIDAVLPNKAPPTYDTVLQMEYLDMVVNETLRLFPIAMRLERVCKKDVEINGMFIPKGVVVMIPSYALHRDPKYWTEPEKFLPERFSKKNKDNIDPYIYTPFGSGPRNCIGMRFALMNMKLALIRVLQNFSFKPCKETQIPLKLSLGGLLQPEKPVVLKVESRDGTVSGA
Test: in vitro
Details: microsomes, CYP activity (% of Control) 3A4 (Testosterone)
property name: activity at 20 min, 100 µM (%)
The answer is to be given in %; state only the numeric part.

Item: CCc1cc(Cl)c(OC)c(N2CCN(CC(O)CCNC(=O)c3cc4ccccc4[nH]3)CC2)c1 (stereo not shown) Test system: CYP3A4 (Homo sapiens, UniProt P08684) Read-out: activity at 20 min, 100 µM Value: ?
95.5

----------
Experiment: Metabolic stability in liver microsomes
Conditions: human, microsomes, pH 7.4
property name: remaining at 2 h, 10 μM (%)
The answer is to be given in %; state only the numeric part.

// returns reported remaining at 2 h, 10 μM for input Cc1ncc2n1-c1ccc(Cl)cc1C(c1ccccc1F)=NC2 [Midazolam, reference compound]
101

----------
Experiment: Metabolic stability in liver microsomes
Conditions: dog, liver microsomes, pH 7.4
property name: remaining at 0 h, 10 μM (%)
The answer is to be given in %; state only the numeric part.

// returns reported remaining at 0 h, 10 μM for input CCc1cc(Cl)c(OC)c(N2CCN(CC(O)CCNC(=O)c3cc4ccccc4[nH]3)CC2)c1 (stereo not shown) [R-VK4-116]
100
